- Tested System: human FXR (NR1H4) (Homo sapiens, UniProt Q96RI1)
- Sequence (Q96RI1 whole entry, the tested form may be a part): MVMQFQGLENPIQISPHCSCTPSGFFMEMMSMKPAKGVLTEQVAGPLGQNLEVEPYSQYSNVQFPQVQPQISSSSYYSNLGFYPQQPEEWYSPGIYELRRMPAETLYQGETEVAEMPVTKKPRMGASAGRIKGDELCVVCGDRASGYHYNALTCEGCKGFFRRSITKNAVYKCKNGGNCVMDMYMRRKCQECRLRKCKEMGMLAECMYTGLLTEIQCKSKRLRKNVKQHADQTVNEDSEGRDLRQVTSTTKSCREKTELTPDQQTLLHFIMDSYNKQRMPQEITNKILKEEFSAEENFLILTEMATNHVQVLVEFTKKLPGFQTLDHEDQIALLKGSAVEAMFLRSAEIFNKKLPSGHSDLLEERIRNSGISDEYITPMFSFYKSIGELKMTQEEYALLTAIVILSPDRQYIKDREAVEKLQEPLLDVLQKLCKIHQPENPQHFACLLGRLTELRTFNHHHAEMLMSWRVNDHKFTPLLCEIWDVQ
- Method: Human FXR (NR1H4) Assay (Gal4 promoter driven luciferase reporter assay in CHO cells)
- Cond: CHO cells expressing human NR1H4, 22 hours incubation, potency ranges

Compound	Tested System	EC50
O=C(O)c1ccc2nc(N[C@@H]3CCC(OCc4c(-c5c(Cl)cccc5Cl)noc4C4CC4)C3)sc2c1 (stereo partly shown)	human FXR (NR1H4) (Homo sapiens, UniProt Q96RI1)	100 to 1000 nM
CC(C)Oc1cc(C(=O)O)cc2sc(N(C)[C@H]3CC[C@H](OCc4c(-c5c(Cl)cccc5Cl)noc4C4CC4)C3)nc12	human FXR (NR1H4) (Homo sapiens, UniProt Q96RI1)	100 to 1000 nM
CC(C)Oc1cc(C(=O)O)cc2sc(N[C@@H]3CC[C@H](OCc4c(-c5ccccc5OC(F)(F)F)noc4C4CC4)C3)nc12	human FXR (NR1H4) (Homo sapiens, UniProt Q96RI1)	< 100 nM
O=C(O)c1cc(F)c2nc(N[C@@H]3CCC(OCc4c(-c5ccccc5OC(F)(F)F)noc4C4CC4)C3)sc2c1 (stereo partly shown)	human FXR (NR1H4) (Homo sapiens, UniProt Q96RI1)	< 100 nM
